Data origin: paper PMC9558907

target: human CB2 (Homo sapiens, UniProt P34972); assay: competitive radioligand binding assay, displacement of [3H]CP55,940, HEK cell membranes; set-up: expressed in transfected cells; host or cells: HEK293 cells, P2 membrane preparation; settings: hCB2 Ki, [3H]CP55,940 1 nM, value in brackets after pKi
Sequence (P34972 whole entry): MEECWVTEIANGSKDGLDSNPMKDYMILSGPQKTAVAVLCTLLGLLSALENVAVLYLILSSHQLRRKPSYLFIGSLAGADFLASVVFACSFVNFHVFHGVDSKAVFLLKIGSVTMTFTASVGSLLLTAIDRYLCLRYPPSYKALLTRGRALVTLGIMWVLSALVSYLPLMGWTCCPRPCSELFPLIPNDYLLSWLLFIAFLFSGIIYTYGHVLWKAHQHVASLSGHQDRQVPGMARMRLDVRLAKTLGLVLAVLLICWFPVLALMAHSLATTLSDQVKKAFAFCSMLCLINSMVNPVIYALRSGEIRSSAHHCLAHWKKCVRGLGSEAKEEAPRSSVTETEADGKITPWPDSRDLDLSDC
assay-endpoint: pKi
One number for each entry, as −log10 of the molar value.

COC(=O)[C@@H](NC(=O)c1cn(CCCCC#N)c2ccccc12)C(C)C [Compound 17]    7.07
COC(=O)[C@H](Cc1ccccc1)NC(=O)c1nn(CCCCC#N)c2ccccc12 [Compound 21]    8.42
CC(C)[C@H](NC(=O)c1cn(CCCCF)c2ncccc12)C(N)=O [Compound 31]    5.85

Okay, now this compound:
Prompt: Give its pKi value. Item: N#CCCCCn1nc(C(=O)N[C@@H](Cc2ccccc2)C(N)=O)c2ccccc21 [Compound 13]
Completion: 6.77
